Attribution: the supplement of paper PMC10567573

B1: MMP1 (parent)
chain: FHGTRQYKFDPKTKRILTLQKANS

# Variants of: B1
# Experiment: protein stability index of a GFP-peptide fusion (GPS, HEK-293T) (PSI 1-6); higher = more stable;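 note: lentivirally expressed fusions sorted by FACS into six bins by GFP to DsRed ratio, PSI derived from sequencing read proportions per bin multiplied by bin number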
# Test Context: c terminus: a fixed tail appended
Param threshold (2) applies to protein stability index; output satisfied when value >= threshold, not satisfied when value < threshold.

Use these answered entries as a reference point.
FHGTRQYKQDPKTKRILTLQKANS [F9Q] :: not satisfied
FHGCRQYKFDPKTKRILTLQKANS [T4C] :: not satisfied
FHGTRQYKFDPKTQRILTLQKANS [K14Q] :: not satisfied
FHGTRQYKFDPKTKRILTLPKANS [Q20P] :: satisfied
FHGTRQYKFDPKTKRMLTLQKANS [I16M] :: not satisfied
FHGTRQYKFDPKTKRILELQKANS [T18E] :: satisfied

[ask] Could you tell me if the measured protein stability index of FHGTRQYKFDPKWKRILTLQKANS [T13W] reaches 2 or more?
[reply] satisfied

[ask] Is protein stability index at least 2? Consider FHGLRQYKFDPKTKRILTLQKANS [T4L]
[reply] not satisfied

[ask] Confirm if protein stability index reported for the variant FHGTRQYKFDPKTKRSLTLQKANS [I16S] is 2 or above.
[reply] not satisfied

[ask] Decide: protein stability index of FHGTRQYKFDPKTKRILTLQKANF [S24F] >= 2?
[reply] not satisfied

[ask] Hi, just wondering whether GHGTRQYKFDPKTKRILTLQKANS [F1G] shows protein stability index of 2 or higher.
[reply] satisfied

[ask] Does the variant FHGTRQYKFDPGTKRILTLQKANS [K12G] have recorded protein stability index that is 2 or more?
[reply] not satisfied

[ask] Can FHGTPQYKFDPKTKRILTLQKANS [R5P] be said to have protein stability index at or above 2?
[reply] satisfied
